- Tested on: AB-PINACA antibody (raised against immunogen 2 of Example 6)
- experimentSummary: AB-PINACA ELISA, final validated kit with Tracer-2 (Example 10), specificity
- Format: binding
- particulars: AB-PINACA N-Pentanoic acid = 100
Given measured % Cross-Reactivity, output yes if it is greater than or equal to 40% and no if not.

- compound: "O=C(c1cn(CCCCCO)c2ccccc12)C12CC3CC(CC(C3)C1)C2"
  assayedSystem: "AB-PINACA antibody (raised against immunogen 2 of Example 6)"
  className: "no"
- compound: "CCCCCn1cc(C(=O)c2ccc(OC)cc2)c2ccccc21"
  assayedSystem: "AB-PINACA antibody (raised against immunogen 2 of Example 6)"
  className: "no"
- compound: "CC(C)(C)C(NC(=O)c1cn(CCCCCF)c2ccccc12)C(N)=O (stereo not shown)"
  assayedSystem: "AB-PINACA antibody (raised against immunogen 2 of Example 6)"
  className: "no"
- compound: "O=C(Oc1cccc2cccnc12)c1cn(CCCCCO)c2ccccc12 [PB-22 N-(5-hydroxypentyl) metabolite]"
  assayedSystem: "AB-PINACA antibody (raised against immunogen 2 of Example 6)"
  className: "no"
- compound: "O=C(O)CCCCn1cc(C(=O)NC23CC4CC(CC(C4)C2)C3)c2ccccc21"
  assayedSystem: "AB-PINACA antibody (raised against immunogen 2 of Example 6)"
  className: "no"
- compound: "CC(C)(C)C(NC(=O)c1nn(CCCCCO)c2ccccc12)C(N)=O (stereo not shown)"
  assayedSystem: "AB-PINACA antibody (raised against immunogen 2 of Example 6)"
  className: "no"
- compound: "CC(C)(C)C(NC(=O)c1nn(CCCCC(=O)O)c2ccccc12)C(N)=O (stereo not shown) [ADB-PINACA pentanoic acid metabolite]"
  assayedSystem: "AB-PINACA antibody (raised against immunogen 2 of Example 6)"
  className: "no"
- compound: "CC(O)CCCn1nc(C(=O)NC(C(N)=O)C(C)C)c2ccccc21 (stereo not shown) [4-Hydroxypentyl AB-PINACA, 1-(4-hydroxypentyl) AB-Pinaca]"
  assayedSystem: "AB-PINACA antibody (raised against immunogen 2 of Example 6)"
  className: "yes"
- compound: "CC(C)C(NC(=O)c1nn(CCCCCF)c2ccccc12)C(N)=O (stereo not shown)"
  assayedSystem: "AB-PINACA antibody (raised against immunogen 2 of Example 6)"
  className: "yes"
- compound: "CC(C)C(NC(=O)c1nn(CCCCCO)c2ccccc12)C(N)=O (stereo not shown) [1-(5-OHpentyl) AB-Pinaca, 1-(5-hydroxypentyl) AB-Pinaca]"
  assayedSystem: "AB-PINACA antibody (raised against immunogen 2 of Example 6)"
  className: "yes"
- compound: "O=C(NC12CC3CC(CC(C3)C1)C2)c1nn(CCCCCO)c2ccccc12 [AKB48 N-(5-hydroxypentyl) metabolite]"
  assayedSystem: "AB-PINACA antibody (raised against immunogen 2 of Example 6)"
  className: "no"
- compound: "CC(O)CCCn1nc(C(=O)NC23CC4CC(CC(C4)C2)C3)c2ccccc21 (stereo not shown) [AKB48 N-(4-hydroxypentyl) metabolite]"
  assayedSystem: "AB-PINACA antibody (raised against immunogen 2 of Example 6)"
  className: "no"
- compound: "CCCCCn1nc(C(=O)NC(C(N)=O)C(C)C)c2ccccc21 (stereo not shown)"
  assayedSystem: "AB-PINACA antibody (raised against immunogen 2 of Example 6)"
  className: "yes"
- compound: "CCCCCn1nc(C(=O)NC(C(=O)O)C(C)C)c2ccccc21 (stereo not shown)"
  assayedSystem: "AB-PINACA antibody (raised against immunogen 2 of Example 6)"
  className: "no"
- compound: "CC(C)C(NC(=O)c1nn(Cc2ccc(F)cc2)c2ccccc12)C(N)=O (stereo not shown)"
  assayedSystem: "AB-PINACA antibody (raised against immunogen 2 of Example 6)"
  className: "no"
- compound: "O=C(O)CCCCn1cc(C(=O)Oc2cccc3cccnc23)c2ccccc21"
  assayedSystem: "AB-PINACA antibody (raised against immunogen 2 of Example 6)"
  className: "no"
- compound: "CCCCCn1cc(C(=O)NC(C(N)=O)C(C)(C)C)c2ccccc21 (stereo not shown)"
  assayedSystem: "AB-PINACA antibody (raised against immunogen 2 of Example 6)"
  className: "no"
- compound: "CC(C)[C@H](NC(=O)c1nn(CC2CCCCC2)c2ccccc12)C(N)=O"
  assayedSystem: "AB-PINACA antibody (raised against immunogen 2 of Example 6)"
  className: "no"
- compound: "CCCCCn1cc(C(=O)NC23CC4CC(CC(O)(C4)C2)C3)c2ccccc21"
  assayedSystem: "AB-PINACA antibody (raised against immunogen 2 of Example 6)"
  className: "no"
